biological target: JAK3: Recombinant human kinase domain (Homo sapiens, UniProt P52333); construct: JAK3: Recombinant human kinase domain from Millipore (Cat #14-629) or prepared; experiment: Determination of IC50 of Janus Kinase (JAK) inhibition, radioactive end-point 33P-ATP assay, JAK3; details: ATP 1.5 uM, peptide 50 uM, 20 minutes, read-out: JAK3-INHIB-DR/v1~NO ADDITIVE~Enzyme_Conc = 100
Sequence (P52333 822-1111 limits assumed): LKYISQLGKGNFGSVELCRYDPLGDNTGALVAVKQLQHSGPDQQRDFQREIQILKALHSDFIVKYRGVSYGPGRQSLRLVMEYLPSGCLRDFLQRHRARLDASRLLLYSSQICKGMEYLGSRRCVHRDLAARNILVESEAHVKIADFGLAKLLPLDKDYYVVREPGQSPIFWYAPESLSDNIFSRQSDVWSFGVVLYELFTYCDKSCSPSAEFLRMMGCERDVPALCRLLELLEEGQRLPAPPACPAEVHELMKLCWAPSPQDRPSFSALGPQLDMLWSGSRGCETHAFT
# pIC50 annotations
Conceptually, pIC50 converts a concentration in mol/L into minus its log10.

| MOLECULE | RESULT |
| --- | --- |
| C[C@@H](NC(=O)c1c[nH]c2ncc(-c3nn(C)c4c3CCC(C)(C)C4)nc12)C(=O)N1CC(C#N)C1 | 7.53 |
| C[C@H](CC(=O)N1CCCC1)NC(=O)c1c[nH]c2ncc(-c3nn(C)c4cc(Cl)ccc34)nc12 | 6.55 |
| COCC(C)NC(=O)c1c[nH]c2ncc(-c3nn(C)c4cc(Cl)ccc34)nc12 (stereo not shown) | 8.94 |

Next molecule, please.
# return recorded pIC50 for input `CCc1ccc2c(-c3cnc4[nH]cc(C(=O)N[C@H](C)C(=O)N5CC(C#N)C5)c4n3)nn(C)c2c1`
8.75

----------
# IC50 annotations
target: JAK3: Recombinant human kinase domain (Homo sapiens, UniProt P52333); construct: JAK3: Recombinant human kinase domain from Millipore (Cat #14-629) or prepared; test: Determination of IC50 of Janus Kinase (JAK) inhibition, radioactive end-point 33P-ATP assay, JAK3; conditions: ATP 1.5 uM, peptide 50 uM, 20 minutes, read-out: JAK3-INHIB-DR/v1~NO ADDITIVE~Enzyme_Conc = 100
Output spec: scalar in nM, unitless text.

Here's what some known entries look like.
| COMPOUND | RESULT |
| --- | --- |
| CC(C)NC(=O)c1c[nH]c2ncc(-c3nn(CCCN(C)C)c4cc(Cl)cc(F)c34)nc12 [Example I-130] | 14.3 |
| Cn1nc(-c2cnc3[nH]cc(C(=O)N[C@@H]4CCC[C@H](O)C4)c3n2)c2ccc(Cl)cc21 (relative stereo) | 10.3 |
| CC(COc1ccccc1)NC(=O)c1c[nH]c2ncc(-c3nn(C)c4cc(F)ccc34)nc12 (stereo not drawn) | 136 |
| COC[C@H](C)NC(=O)c1c[nH]c2ncc(-c3ncn4cc(F)ccc34)nc12 | 0.375 |
| COC[C@@H](NC(=O)c1c[nH]c2ncc(-c3nn(C)c4cc(Cl)ccc34)nc12)C(=O)N1CC(F)C1 | 1.09 |
| CCNC(=O)c1c[nH]c2ncc(-c3nn(C)c4cc(Cl)ccc34)nc12 | 44.3 |

# return recorded IC50 for input `Cn1nc(-c2cnc3[nH]cc(C(=O)NCC(C)(C)C)c3n2)c2ccc(F)cc21`
8.23

# return recorded IC50 for input `C[C@@H](NC(=O)c1c[nH]c2ncc(-c3nn(C)c4cc(F)ccc34)nc12)C1(C#N)CCCC1`
156

# return recorded IC50 for input `CC(C)NC(=O)c1c[nH]c2ncc(-c3nn(CCCN4CCOCC4)c4cc(Cl)cc(F)c34)nc12`
4.72

# return recorded IC50 for input `COC[C@H](C)NC(=O)c1c[nH]c2ncc(-c3nn(CCN4CC[C@H](F)C4)c4cc(F)ccc34)nc12`
1.47

# return recorded IC50 for input CC(NC(=O)c1c[nH]c2ncc(-c3nn(CCN(C)C)c4cc(F)ccc34)nc12)c1ccncc1 (stereo not drawn)
170
